# TGI per entry
System: MCF7 breast
Assay: NCI tumour cell line growth inhibition, 48 h

- compound: "O=C1/C(=C\\c2ccccc2)c2ccccc2N1Cc1ccccc1"
  study_target: "MCF7 breast"
  TGI: "12.3 µM"
- compound: "C=CC1=C(C)C2=NC1=CC1=NC(=C(CC)/C1=C/O)C=C1C=C3C(=O)C(C(=O)OC)C(=C4NC(=C2)C(C)C4CCC(=O)OC/C=C(\\C)CCCC(C)CCCC(C)CCCC(C)C)C3=N1 (centres undefined) (tested in a mixture with another compound)"
  study_target: "MCF7 breast"
  TGI: "> 100 µM"
- compound: "CC1C(c2ccccc2O)c2cc3c(cc2OC1N1CCCC1)OCO3 (centres undefined)"
  study_target: "MCF7 breast"
  TGI: "67.4 µM"
- compound: "CCOC(=O)c1c(C)c2c(n1C)CSc1cc(S(=O)(=O)c3ccccc3)c(=O)[nH]c1-2"
  study_target: "MCF7 breast"
  TGI: "> 100 µM"
- compound: "CC(O[Si](C)(C)C(C)(C)C)[C@H](NC(=O)OCC(Cl)(Cl)Cl)C(=O)O (some centres undefined)"
  study_target: "MCF7 breast"
  TGI: "> 100 µM"

Entry `CCCCc1ccc(Nc2nc(Cl)c3[nH]cnc3n2)cc1` , TGI reported as 37.9 µM

Entry `NC(N)=NC(N)=NCCc1ccccc1` , TGI reported as > 100 µM

Entry `Cc1cc(S(=O)(=O)Nc2nc(N)n(C)n2)c(S)cc1Cl` , TGI reported as > 10 µM

Entry `CC1(C)[C@H](O)CC[C@]2(C)C3=CC[C@@]4(C)[C@@H]5C[C@](C)(CO)CC[C@]5(C)CC[C@]4(C)C3=CC[C@@H]12` , TGI reported as > 100 µM

---

System: MALME-3M melanoma
Assay: NCI tumour cell line growth inhibition, 48 h
# TGI per entry
Numeric only. Scale: µM

- compound: "Nc1nc(Cl)c2ncn(Cc3ccccc3CCl)c2n1"
  measured: 10.2
- compound: "OCCOCCO[P+]1(OCCOCCO)n2c3ccc2C(c2ccccc2)=C2C=CC(=N2)C(c2ccccc2)=c2ccc(n21)=C(c1ccccc1)C1=NC(=C3c2ccccc2)C=C1"
  measured: 0.706
- compound: "COc1ccc(-c2nc3ccc(C)cc3o2)c(OC)c1"
  measured: 42.1
- compound: "Nc1cc(C(F)F)c(-c2nc(N3[C@@H]4CC[C@H]3COC4)nc(N3[C@@H]4CC[C@H]3COC4)n2)cn1"
  measured: 0.877
- compound: "Cc1ccc(NC2=C(Cl)C(=O)c3nc(C)ccc3C2=O)cc1"
  measured: 3.23
- compound: "CCC12C=CCN3CC[C@]4(C(=C(C(=O)OC)[C@@H]1Nc1ccn(C5OC(COC(C)=O)C(OC(C)=O)C5OC(C)=O)c(=O)n1)Nc1ccccc14)C32 (some centres undefined)"
  measured: 9.74
- compound: "O=[N+]([O-])c1ccc(N(CCO)CCO)c2c1no[n+]2[O-]"
  measured: 4.64
- compound: "O=S(=O)(Nc1ccc(Cl)c(C(F)(F)F)c1)c1ccc(-c2cnc(C3CC3)o2)cc1"
  measured: 4.41

Entry `Clc1ccc2c(NCCCN3CCN(c4nc(-n5ccnc5)nc5ccccc45)CC3)ccnc2c1` , TGI reported as 3.56

Entry `NC(=O)c1c(OCc2c(F)cc(Br)cc2F)nsc1NC(=O)NCCCCN1CCCC1` , TGI reported as 3.41

Entry `O=C(c1cccs1)c1c(C(F)(F)F)n([O-])c2cc(F)c(F)cc2[n+]1=O` , TGI reported as 1.52

Entry `COc1ccc(OC)c(-c2nc3sccn3c2/C=C2/C(=O)Nc3ccccc32)c1` , TGI reported as 21.2
